Target: T1, human AMHRII (anti-Mullerian hormone receptor type 2) (human, UniProt Q16671 18-573)
T1 construct: whole, on cells; also called AMHR2; human AMHR2
T1 sequence (looked up): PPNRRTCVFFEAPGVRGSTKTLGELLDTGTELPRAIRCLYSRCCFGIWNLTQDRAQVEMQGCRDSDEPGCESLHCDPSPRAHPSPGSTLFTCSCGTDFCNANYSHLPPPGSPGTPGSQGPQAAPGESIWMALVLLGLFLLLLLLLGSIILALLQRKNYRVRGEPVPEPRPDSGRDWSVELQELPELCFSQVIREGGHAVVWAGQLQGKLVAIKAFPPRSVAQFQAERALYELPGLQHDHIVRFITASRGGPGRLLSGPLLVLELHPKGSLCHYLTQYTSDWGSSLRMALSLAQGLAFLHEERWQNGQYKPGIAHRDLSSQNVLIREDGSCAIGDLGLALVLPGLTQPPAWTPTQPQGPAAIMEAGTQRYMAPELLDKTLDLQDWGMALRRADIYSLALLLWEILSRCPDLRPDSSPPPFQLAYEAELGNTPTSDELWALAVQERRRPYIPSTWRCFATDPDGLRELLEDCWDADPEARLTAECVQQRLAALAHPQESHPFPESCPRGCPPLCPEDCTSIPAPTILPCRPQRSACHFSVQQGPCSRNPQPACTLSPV
Test: FACS on CHO-K1 cells over-expressing human AMHR2
Quick reference: EC50 of the listed items.

Binder	Measurement unit	EC50
31D9B3 H2L4 hIgG1 (antibody, V domains shown, Humanized, human IgG1; also called 31D9B3 H2L4 hlgG1) VH: QVQLVQSGAEVVKPGASVKVSCKASGYTFTDYWVSWVRQAPGQGLEWIGEIYPKNGVSNFNEKFKGRVTMTVDTSTSTAYMELRSLRSDDTAVYYCTRQRDYWGQGTLVTVSS VL: DVVLTQSPLSLPVTLGQPASISCRSSQSLEYGDGYTYLEWYLQRPGQSPQLLIYGVSNRFSGVPDRFIGSGSGTDFTLKISRVEPEDVGVYYCFQATHDPNTFGAGTKLEIK	nM	1.67
31D9B3 H2L2 hIgG1 (antibody, V domains shown, Humanized, human IgG1; also called 31D9B3 H2L2 hlgG1) VH: QVQLVQSGAEVVKPGASVKVSCKASGYTFTDYWVSWVRQAPGQGLEWIGEIYPKNGVSNFNEKFKGRVTMTVDTSTSTAYMELRSLRSDDTAVYYCTRQRDYWGQGTLVTVSS VL: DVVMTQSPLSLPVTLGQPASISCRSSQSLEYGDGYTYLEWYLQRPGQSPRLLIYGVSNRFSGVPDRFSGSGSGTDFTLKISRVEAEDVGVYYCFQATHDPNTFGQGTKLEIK	nM	1.58
31D9B3 H2L1 hIgG1 (antibody, V domains shown, Humanized, human IgG1; also called 31D9B3 H2L1 hlgG1) VH: QVQLVQSGAEVVKPGASVKVSCKASGYTFTDYWVSWVRQAPGQGLEWIGEIYPKNGVSNFNEKFKGRVTMTVDTSTSTAYMELRSLRSDDTAVYYCTRQRDYWGQGTLVTVSS VL: DVVMTQSPLSLPVTLGQPASISCRSSQSLEYGDGYTYLEWFQQRPGQSPRRLIYGVSNRFSGVPDRFSGSGSGTDFTLKISRVEAEDVGVYYCFQATHDPNTFGQGTKLEIK	nM	22.5
